assay: Toxicokinetic evaluation of 14-day repeated intragastric administration to SD rats; type: in vivo; settings: both sexes, SD, rat, plasma, po, 1.5 mg/kg, repeated intragastric 1.5 mg/kg, Day 7, read-out: Half-life T1/2 (converted)
Measured Quantity: half-life at 7 day (h)
Return type: number; implicit unit h.

Query: I'd like to know its half-life at 7 day. The molecule in question is CC(C)n1c(=O)cc(N[C@@H](C)c2ccccc2)[nH]c1=O [MYK-461, reference compound]
Result: 20.5

====

assay: Toxicokinetic evaluation of 14-day repeated intragastric administration to SD rats; format: in vivo; conditions: both sexes, SD, rat, plasma, po, 15 mg/kg, repeated intragastric 15 mg/kg, Day 14, read-out: Area under curve AUC
Measured Quantity: AUC (ng·h/mL)
Give the number; ng·h/mL is assumed, so skip it.

Query: Entry under review: Cc1ccc(F)c([C@H](C)Nc2nc(=O)n(C3CCOCC3)c(=O)[nH]2)c1 . Reported AUC?
Result: 82900
